Where these numbers come from: ChEMBL document CHEMBL3988442

- Test system: Trypanosoma brucei
- PROCEDURE DETAILS: Trypanosoma brucei 72 hour study
- Format: functional, organism-based
- Set-up: scale not given: in the data most compounds retested in dose-response had high values
- CONDITION LABEL: 30 µM; 30.03 µM
Screen size: about 66,000 compounds; about 960 (1.5%) showed an effect of 50% or more. The sample as a whole holds a higher share of strong results than the screen did.

>  <MOLECULE>
O=C(CN1CC(c2nc(C3CC3)no2)C1)N1CCOCC1.O=C(O)C(=O)O

>  <UNIT SYMBOL>
%

>  <Percent Effect>
47.84

$$$$
>  <MOLECULE>
N#Cc1cccc(N2CCCC(CO)(CCOc3ccccc3)C2)n1 (configuration not stated)

>  <UNIT SYMBOL>
%

>  <Percent Effect>
-42.71

$$$$
>  <MOLECULE>
O=C(O)C(F)(F)F.O=C(O)C(F)(F)F.c1cncc(OCc2noc3c2CN(Cc2cccs2)CC3)c1

>  <UNIT SYMBOL>
%

>  <Percent Effect>
-9.325

$$$$
>  <MOLECULE>
COCCCN(C)c1cc(C(F)(F)F)nc(-c2cccnc2)n1

>  <UNIT SYMBOL>
%

>  <Percent Effect>
14.1

$$$$
>  <MOLECULE>
O=C(Nc1nccs1)NC1CCN(Cc2ccccc2)C1 (configuration not stated)

>  <UNIT SYMBOL>
%

>  <Percent Effect>
-14.85

$$$$
>  <MOLECULE>
O=C(NCc1ccco1)[C@@H]1CCO[C@@H]2CCN(CC3CC3)C[C@@H]21.O=C(O)C(F)(F)F

>  <UNIT SYMBOL>
%

>  <Percent Effect>
-21.92

$$$$
>  <MOLECULE>
COCCNC(=O)NCCc1ccn(-c2ccccc2)n1

>  <UNIT SYMBOL>
%

>  <Percent Effect>
42.02

$$$$
>  <MOLECULE>
CCO[C@H]1CO[C@@]2(CCCN(Cc3scnc3C)C2)C1.O=C(O)C(F)(F)F

>  <UNIT SYMBOL>
%

>  <Percent Effect>
-66.13

$$$$
>  <MOLECULE>
CN1C[C@H]2CC[C@@H]1CN(C(=O)COCc1nc3cc(F)ccc3[nH]1)C2

>  <UNIT SYMBOL>
%

>  <Percent Effect>
-9.559

$$$$
>  <MOLECULE>
Cc1cnc(C(=O)N2CCC3(CCN(Cc4ccccn4)C3=O)C2)cn1.O=C(O)C(F)(F)F (configuration not stated)

>  <UNIT SYMBOL>
%

>  <Percent Effect>
-17.07

$$$$
>  <MOLECULE>
COc1ccc(-c2csc3c2c(N)nc(=O)n3CCCN(C)C)cc1

>  <UNIT SYMBOL>
%

>  <Percent Effect>
-33.83

$$$$
>  <MOLECULE>
CC(=O)c1ccc(N2CCCC(CO)(CCOc3ccccc3)C2)nc1 (configuration not stated)

>  <UNIT SYMBOL>
%

>  <Percent Effect>
71.93

$$$$

---

- Tested on: Trypanosoma brucei
- PROCEDURE DETAILS: Trypanosoma brucei 72 hour study
- Assay type: functional, organism-based
- Design: scale not given: in the data most compounds retested in dose-response had high values
- CONDITION LABEL: 30.3 µM; […]
Screen size: about 66,000 compounds; about 960 (1.5%) showed an effect of 50% or more. The full list was thinned out, with strong results kept by preference.
Recorded Percent Effect values for a group of molecules are listed next.

>  <MOLECULE>
CCCc1nc2c(c(C)c(C)n2Cc2cccnc2)c(N)c1CC

>  <UNIT SYMBOL>
%

>  <Percent Effect>
26.57

$$$$
>  <MOLECULE>
Cl.O=C(NCc1ccc(F)cc1)N1CCN(CC(O)C2CC2)CC1 (stereo not drawn)

>  <UNIT SYMBOL>
%

>  <Percent Effect>
2.371

$$$$
>  <MOLECULE>
CN(C)[C@@H]1CCN(CC2CC2)[C@H]1Cc1cnn(C)c1.O=C(O)C(F)(F)F.O=C(O)C(F)(F)F

>  <UNIT SYMBOL>
%

>  <Percent Effect>
-399.8

$$$$
>  <MOLECULE>
CCCN1CCC(NC(=O)c2csc(C)c2C)CC1

>  <UNIT SYMBOL>
%

>  <Percent Effect>
-65.99

$$$$
>  <MOLECULE>
COc1ccccc1C1(CNc2snc(Cl)c2C#N)CCCC1

>  <UNIT SYMBOL>
%

>  <Percent Effect>
35.81

$$$$
>  <MOLECULE>
COc1ccccc1C1(CNc2snc(Cl)c2C#N)CCOCC1

>  <UNIT SYMBOL>
%

>  <Percent Effect>
0.1302

$$$$
>  <MOLECULE>
CCCc1nc2c(c(C)c(C)n2Cc2ccncc2)c(N)c1CC

>  <UNIT SYMBOL>
%

>  <Percent Effect>
11.66

$$$$
>  <MOLECULE>
CC(C)N1CCO[C@@H]2CN(S(=O)(=O)c3cccs3)CC[C@@H]2C1.O=C(O)C(F)(F)F

>  <UNIT SYMBOL>
%

>  <Percent Effect>
-39.91

$$$$
>  <MOLECULE>
COCCN1CCCn2c(nc(CNS(C)(=O)=O)cc2=O)C1.O=C(O)C(F)(F)F

>  <UNIT SYMBOL>
%

>  <Percent Effect>
5.593

$$$$
>  <MOLECULE>
CC1CN(Cc2cccnc2)CCN1c1ccc2nncn2n1 (stereo not drawn)

>  <UNIT SYMBOL>
%

>  <Percent Effect>
7.126

$$$$
>  <MOLECULE>
O=C(NCCc1nnc2n1CCC2)NCC1(c2ccccc2)CC1

>  <UNIT SYMBOL>
%

>  <Percent Effect>
3.515

$$$$
>  <MOLECULE>
Cl.Cn1nc(C2CCN(C(=O)Cc3ccsc3)CC2)c2cccnc21

>  <UNIT SYMBOL>
%

>  <Percent Effect>
16.05

$$$$
>  <MOLECULE>
O=C(O)C(F)(F)F.O=C(O)C(F)(F)F.c1cc(CN2CC[C@@H]3[C@@H](CO[C@H]3CN3CCOCC3)C2)cs1

>  <UNIT SYMBOL>
%

>  <Percent Effect>
-46.86

$$$$

---

- Tested on: Trypanosoma brucei
- PROCEDURE DETAILS: Trypanosoma brucei 72 hour study
- Assay type: functional, organism-based
- Design: scale not given: in the data most compounds retested in dose-response had high values
- CONDITION LABEL: 30.3 µM; […]
Hit rate of the full screen: of about 66,000 compounds, about 960 (1.5%) showed an effect of 50% or more. The list comes from a sample in which strong results are over-represented; it also holds close analogues and randomly drawn compounds.
PROPERTY LABEL: Percent Effect (%)

>  <CHEM SMILES>
CCC1=N[C@@]2(CC[C@@H]3CN(Cc4ccc(C)cc4)C[C@@H]32)C(=O)N1C.O=C(O)C(F)(F)F

>  <UNIT SYMBOL>
%

>  <MEASURED VALUE>
-61.95

$$$$
>  <CHEM SMILES>
Cc1noc(Cl)c1CCC(=O)N1CCN(c2ccccc2)CC1

>  <UNIT SYMBOL>
%

>  <MEASURED VALUE>
16.11

$$$$
>  <CHEM SMILES>
Cc1ccc(CCNc2nc(-c3ccncc3)nc3c2CCNCC3)o1

>  <UNIT SYMBOL>
%

>  <MEASURED VALUE>
-212

$$$$
>  <CHEM SMILES>
COc1cc(N2CC[C@@H]3O[C@H](C(=O)N(C)C)C[C@@H]32)ncn1.O=C(O)C(F)(F)F

>  <UNIT SYMBOL>
%

>  <MEASURED VALUE>
-9.278

$$$$
>  <CHEM SMILES>
O=C(Cc1cccc(F)c1)N1CCc2ncnc(NC3CCC3)c2CC1

>  <UNIT SYMBOL>
%

>  <MEASURED VALUE>
-72.72

$$$$

---

- System: Trypanosoma brucei
- PROCEDURE DETAILS: Trypanosoma brucei 72 hour study
- Assay type: functional, organism-based
- Set-up: scale not given: in the data most compounds retested in dose-response had high values
- CONDITION LABEL: 30.3 µM; […]
The whole screen tested about 66,000 compounds, of which about 960 (1.5%) showed an effect of 50% or more. The list comes from a sample in which strong results are over-represented; it also holds close analogues and randomly drawn compounds.
Recorded Percent Effect values for a group of molecules are listed next.

>  <MOLECULE>
CC(C)CN1CCO[C@H]2CCN(c3cnccn3)CC[C@@H]21.O=C(O)C(F)(F)F

>  <UNIT SYMBOL>
%

>  <Percent Effect>
-43.11

$$$$
>  <MOLECULE>
CCc1ccc(NC(=O)N2C[C@H]3C[C@H](C(=O)NC4CCC4)[C@@H](C2)O3)cc1

>  <UNIT SYMBOL>
%

>  <Percent Effect>
-16.27

$$$$
>  <MOLECULE>
Cl.Cn1cc([C@@H]2CN(S(C)(=O)=O)C[C@H]2N)c2ccncc21

>  <UNIT SYMBOL>
%

>  <Percent Effect>
-16.68

$$$$
>  <MOLECULE>
Cl.Cn1cc([C@@H]2CN(S(=O)(=O)c3cccnc3)C[C@H]2N)c2ccncc21

>  <UNIT SYMBOL>
%

>  <Percent Effect>
-9.979

$$$$
>  <MOLECULE>
Cc1ccccc1SC1CCN(C(=O)C2CNCC(=O)N2)CC1 (stereo unspecified)

>  <UNIT SYMBOL>
%

>  <Percent Effect>
6.741

$$$$
>  <MOLECULE>
CC(=O)N1CCCC2(CCC(=O)N2Cc2cccnc2)C1.O=C(O)C(F)(F)F (stereo unspecified)

>  <UNIT SYMBOL>
%

>  <Percent Effect>
1.324

$$$$
